Assay: Quantitative High-Throughput drug screen in 47 multiple myeloma cell lines against the NCATS MIPE library collection: OCIMY7_PLB cell viability assay (AID 1918987); further: nearly all actives have a fitted effect of over 65% in size
Conditions: OCI-MY7 myeloma viability, CellTiter-Glo ATP, 48 h
Results filed as inconclusive are left out. Calls of active or inactive are those of the source. The call rests on the fitted dose curve; in most records, active means well fitted cell-killing curve with a large enough effect; inconclusive means small, poorly fitted or top-dose-only effect, or effect the other way; inactive means no such curve, though single readings can be large or run the other way.
Outcome codes: active, inactive

Chemical Structure | Classification
CC(C)C[C@H](NC(=O)c1cc2ccccc2s1)C(=O)N1CCN(C(=O)[C@H](CO)NS(=O)(=O)c2ccc(Cl)cc2Cl)CC1 | active
COc1ccc2cc1Oc1ccc(cc1)C[C@H]1c3cc(c(OC)cc3CCN1C)Oc1c(OC)c(OC)cc3c1[C@H](C2)N(C)CC3 | active
CCC(=C(c1ccc(O)cc1)c1ccc(OCCNC)cc1)c1ccccc1 | active
O=C(c1ccc(C=Cc2n[nH]c3ccccc23)cc1)N1CCNCC1 | active
CC(C)(O)CC(=O)NCCn1ccc2ncnc(Nc3ccc(Oc4cccc(C(F)(F)F)c4)c(Cl)c3)c21 | active
COc1ccc(Cn2ccc3ccc(C(=O)NO)cc32)cc1 | active
Cc1cc(OCCCS(C)(=O)=O)cc(C)c1-c1cccc(COc2ccc3c(c2)OC[C@H]3CC(=O)O)c1 | active
CC[C@]1(O)C[C@H]2CN(CCC3=c4ccccc4=N[C]3[C@@](C(=O)OC)(c3cc4c(cc3OC)N(C)[C@H]3[C@@](O)(C(N)=O)[C@H](O)[C@]5(CC)C=CCN6CC[C@]43[C@@H]65)C2)C1 | active
Cc1[nH]c(C=C2C(=O)Nc3ccc(S(=O)(=O)N(C)c4cccc(Cl)c4)cc32)c(C)c1C(=O)N1CCN(C)CC1 | active
Cn1cc(-c2ccc3nnc(Sc4ccc5ncccc5c4)n3n2)cn1 | inactive
CC(C)(CO)[C@@H](O)C(=O)NCCC(=O)O | inactive
Cc1nc(C(=O)NCC(=O)O)c(O)c2ccc(Oc3ccccc3)cc12 | inactive
CC(C)CN(C[C@@H](O)[C@H](Cc1ccccc1)NC(=O)O[C@H]1CO[C@H]2OCC[C@H]21)S(=O)(=O)c1ccc(N)cc1 | active
Cc1cccc(Nc2nc(N[C@@H]3CCCC[C@H]3N)ncc2C(N)=O)c1 | active
O=c1[nH]c(=O)n([C@H]2C[C@@H](O)[C@@H](CO)O2)cc1C(F)(F)F | active
CC(C)c1c(C(=O)Nc2ccccc2)c(-c2ccccc2)c(-c2ccc(F)cc2)n1CC[C@H](O)C[C@@H](O)CC(=O)O | active
NC1(C(=O)N[C@@H](CCO)c2ccc(Cl)cc2)CCN(c2ncnc3[nH]ccc23)CC1 | active
NC(N)=Nc1nc(CSCCC(N)=NS(N)(=O)=O)cs1 | active

---

Biological target: Catechol O-methyltransferase (Homo sapiens) (UniProt P21964)
Sequence (P21964 whole entry, looked up): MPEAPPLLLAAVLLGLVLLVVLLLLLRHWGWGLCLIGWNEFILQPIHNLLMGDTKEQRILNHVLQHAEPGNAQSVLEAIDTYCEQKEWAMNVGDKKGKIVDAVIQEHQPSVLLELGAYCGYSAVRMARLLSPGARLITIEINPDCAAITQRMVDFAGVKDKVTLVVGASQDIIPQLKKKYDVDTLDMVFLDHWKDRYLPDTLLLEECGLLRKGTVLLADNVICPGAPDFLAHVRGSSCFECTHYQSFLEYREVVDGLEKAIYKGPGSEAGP
Experiment: Confirmatory Screen for Target Class Profiling of Small Molecule Inhibitors of Methyltransferases (AID 1745852)
Conditions: MTase-Glo luminescence, SAH detection, recombinant enzyme; measured here: COMT max response; stronger effect = lower value
# activity listing for each entry below

Compound | Unit Text | activity
Cc1ccccc1-n1c(Cn2nc(-c3cccc(O)c3)c3c(N)ncnc32)nc2cccc(C)c2c1=O | % | -10.8
CNC(=O)c1ccc2c(C(=Nc3cccc(CN(C)C)c3)c3ccccc3)c(O)[nH]c2c1 | % | -17.1
Cc1ccc2c(c1)c1c(n2CCc2ccc(C)nc2)CCN(C)C1 | % | -6.68
CNC1CCC(N(Cc2cccc(-c3ccncc3)c2)C(=O)c2sc3ccccc3c2Cl)CC1 (centres undefined) | % | -14.8
CCN1CCC(n2cc(CNc3cc(Cl)c4ncc(C#N)c(Nc5ccc(F)c(Cl)c5)c4c3)nn2)CC1 | % | -89.7
Nc1[nH]nc2nnc(-c3c(-c4ccccc4)nn4ccccc34)cc12 | % | -90.6
CC1(COc2ccc3c(c2)ncn3-c2ccc3cccc(N4CCC(N)CC4)c3n2)COC1 | % | -30.2
Nc1ncnc2c1c(-c1cccc(OCc3ccccc3)c1)cn2C1CC(CN2CCC2)C1 (centres undefined) | % | -26
NS(=O)(=O)c1ccc(Nc2nc(OCC3CCCCC3)c3[nH]cnc3n2)cc1 | % | -14.9

---

Test: Quantitative High-Throughput drug screen in 47 multiple myeloma cell lines against the NCATS MIPE library collection: KMS34_JCRB cell viability assay (AID 1918985); further: nearly all actives have a fitted effect of over 40% in size
Conditions: KMS34 myeloma viability, CellTiter-Glo ATP luminescence, 48 h; series mostly up to 45.8 µM
Text: PI: Beverly A. Mock Ph.D. Laboratory of Cancer Biology and Genetics, Center for Cancer Research, National Cancer Institute, National Institute of Health, Bethesda, Maryland […] 5; Detector; 425V; Luminescence; Viewlux PerkinElmer. […] 1. […] Briefly, the corresponding myeloma cell lines were screened in 1,536-well plates with 500 cells, 5-uL per well for inhibition of cell viability (assessed by measuring ATP levels with CellTiterGlo). […]
Results filed as inconclusive are left out. Activity calls are given as the source filed them. The call rests on the fitted dose curve; in most records, active means well fitted cell-killing curve with a large enough effect; inconclusive means small, poorly fitted or top-dose-only effect, or effect the other way; inactive means no such curve, though single readings can be large or run the other way.
Outcome codes: Yes for active, No for inactive

Compound | Classification
CC[C@]1(O)C[C@H]2CN(CCC3=c4ccccc4=N[C]3[C@@](C(=O)OC)(c3cc4c(cc3OC)N(C)[C@H]3[C@@](O)(C(N)=O)[C@H](O)[C@]5(CC)C=CCN6CC[C@]43[C@@H]65)C2)C1 | Yes
CC(C)CN(C[C@H](O)[C@H](Cc1ccccc1)NC(=O)O[C@H]1CCOC1)S(=O)(=O)c1ccc(N)cc1 | No
c1cc(OCCN2CCCCC2)cc(-c2n[nH]c3ccc(-c4ncn[nH]4)cc23)c1 | Yes
CC(C)(F)C[C@H](N[C@@H](c1ccc(-c2ccc(S(C)(=O)=O)cc2)cc1)C(F)(F)F)C(=O)NC1(C#N)CC1 | No
CSc1cccc(Nc2ncc3cc(-c4c(Cl)cccc4Cl)c(=O)n(C)c3n2)c1 | Yes
N#CC(c1ccnc(NCCc2cccnc2)n1)c1nc2ccccc2s1 (stereo not drawn) | Yes
CN1CCN2c3ncccc3Cc3ccccc3C2C1 (stereo not drawn) | No
CN(C)N=Nc1nc[nH]c1C(N)=O | No

---

Experiment: Quantitative High-Throughput drug screen in 47 multiple myeloma cell lines against the NCATS MIPE library collection: ARP1_JJKsccF8 cell viability assay (AID 1918928; further: nearly all actives have a fitted effect of over 40% in size;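 on viability: 100% = DMSO only wells and 0% = medium only wells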)
Settings: ARP1 myeloma cells viability, CellTiter-Glo ATP, 48 h; series mostly up to 45.8 µM
Inconclusive results are not listed. Calls of active or inactive are those of the source. Calls come from the whole dose curve; as a rule, active = well fitted cell-killing curve with a large enough effect; inconclusive = small, poorly fitted or top-dose-only effect, or effect the other way; inactive = no such curve, though single readings can be large or run the other way.
Outcome codes: True (active), False (inactive)

Molecule | Classification
N#CC(c1ccnc(NCCc2cccnc2)n1)c1nc2ccccc2s1 (stereo not drawn) | True
COc1cc2c(cc1OC)[C@@H]1Cc3ccc(OC)c(OC)c3CN1CC2 | True
CC1(C)C(N(O)C(=O)Nc2ccc(Cl)cc2)N(c2ccc(Cl)cc2)C(=O)N1CC(=O)NN=CC=Cc1ccc([N+](=O)[O-])o1 (stereo not drawn) | True
CC[C@H](C=C[C@@H](C)[C@H]1CC[C@H]2[C@@H]3CC=C4C[C@@H](O)CC[C@]4(C)[C@@H]3CC[C@]12C)C(C)C | False
CCC(=C(CC)c1ccc(O)cc1)c1ccc(O)cc1 | True
N[C@@H](CC(=O)N1CCn2c(nnc2C(F)(F)F)C1)Cc1cc(F)c(F)cc1F | False
CC(C)c1onc(-c2c(Cl)cccc2Cl)c1COc1ccc(C=Cc2cccc(C(=O)O)c2)c(Cl)c1 | False
Cc1cc2nc3c(=O)[nH]c(=O)nc-3n(CC(O)C(O)C(O)CO)c2cc1C (stereo not drawn) | True
CCC=CC[C@H]1C(=O)CC[C@@H]1CC(=O)OC | False
COc1cc2nc(-c3cc(F)ccc3O)nc(N[C@@H]3CNC[C@@H]3C(C)(C)O)c2cc1OC | True
CN(C)CCOc1ccc(-c2nc(-c3ccc4c(c3)CCC4=NO)c(-c3ccncc3)[nH]2)cc1 | True
C#CCN(C)CC1=Cc2ccccc2Oc2ccccc21 | False
CN[C@H]1[C@@H](O[C@@H]2[C@H](O[C@@H]3[C@@H](O)[C@@H](O)[C@@H](N=C(N)N)[C@@H](O)[C@@H]3N=C(N)N)O[C@H](C)[C@@]2(O)C=O)O[C@@H](CO)[C@@H](O)[C@H]1O | False
COc1cc([C@H]2Oc3cc([C@H]4Oc5cc(O)cc(O)c5C(=O)[C@H]4O)ccc3O[C@H]2CO)ccc1O | True
CNC(=O)c1ccc2c(C(=Nc3cccc(CN(C)C)c3)c3ccccc3)c(O)[nH]c2c1 | False
CCCCCOC(=O)Nc1nc(=O)n([C@@H]2O[C@H](C)[C@@H](O)C2O)cc1F (stereo partly drawn) | False
Oc1ccc(C=Cc2cc(O)cc(O)c2)cc1 | True
O=C(Nc1ncc(SCCN2CCCC2)s1)[C@]1(c2ccc(S(=O)(=O)C3CC3)cc2)C[C@@H]1C1CCCCC1 | True

---

Assay: Quantitative High-Throughput drug screen in 47 multiple myeloma cell lines against the NCATS MIPE library collection: OPM2_DSMZ cell viability assay (AID 1919872); further: nearly all actives have a fitted effect of over 30% in size
Conditions: OPM2 myeloma viability, CellTiter-Glo ATP luminescence, 48 h; series mostly up to 45.8 µM
Records with an inconclusive call do not appear. Calls of active or inactive are those of the source. Calls come from the whole dose curve; as a rule, active = well fitted cell-killing curve with a large enough effect; inconclusive = small, poorly fitted or top-dose-only effect, or effect the other way; inactive = no such curve, though single readings can be large or run the other way.
Outcome codes: active, inactive

Compound | Classification
O=C(O)Cc1cccc(OCCCN(Cc2cccc(C(F)(F)F)c2Cl)CC(c2ccccc2)c2ccccc2)c1 | inactive
CNC1[C@H](O)C(O[C@@H]2C(O)C(O[C@H]3O[C@H]([C@@H](C)NC)CC[C@H]3N)[C@@H](N)C[C@H]2N)OC[C@]1(C)O (some centres undefined) | inactive
CCC(=O)N1CCN(c2ccc(-n3c(=O)ccc4cnc5ccc(-c6cnc7ccccc7c6)cc5c43)cc2C(F)(F)F)CC1 | active
O=C1C(c2c(O)[nH]c3ccccc23)=Nc2ccccc21 | inactive
